TARGET OF ASSAY: human TLR9 (Homo sapiens, UniProt Q9NR96)
Construct: host or cells: HEK-Blue cells (HEK293-derived reporter line)
Sequence (Q9NR96 26-1032): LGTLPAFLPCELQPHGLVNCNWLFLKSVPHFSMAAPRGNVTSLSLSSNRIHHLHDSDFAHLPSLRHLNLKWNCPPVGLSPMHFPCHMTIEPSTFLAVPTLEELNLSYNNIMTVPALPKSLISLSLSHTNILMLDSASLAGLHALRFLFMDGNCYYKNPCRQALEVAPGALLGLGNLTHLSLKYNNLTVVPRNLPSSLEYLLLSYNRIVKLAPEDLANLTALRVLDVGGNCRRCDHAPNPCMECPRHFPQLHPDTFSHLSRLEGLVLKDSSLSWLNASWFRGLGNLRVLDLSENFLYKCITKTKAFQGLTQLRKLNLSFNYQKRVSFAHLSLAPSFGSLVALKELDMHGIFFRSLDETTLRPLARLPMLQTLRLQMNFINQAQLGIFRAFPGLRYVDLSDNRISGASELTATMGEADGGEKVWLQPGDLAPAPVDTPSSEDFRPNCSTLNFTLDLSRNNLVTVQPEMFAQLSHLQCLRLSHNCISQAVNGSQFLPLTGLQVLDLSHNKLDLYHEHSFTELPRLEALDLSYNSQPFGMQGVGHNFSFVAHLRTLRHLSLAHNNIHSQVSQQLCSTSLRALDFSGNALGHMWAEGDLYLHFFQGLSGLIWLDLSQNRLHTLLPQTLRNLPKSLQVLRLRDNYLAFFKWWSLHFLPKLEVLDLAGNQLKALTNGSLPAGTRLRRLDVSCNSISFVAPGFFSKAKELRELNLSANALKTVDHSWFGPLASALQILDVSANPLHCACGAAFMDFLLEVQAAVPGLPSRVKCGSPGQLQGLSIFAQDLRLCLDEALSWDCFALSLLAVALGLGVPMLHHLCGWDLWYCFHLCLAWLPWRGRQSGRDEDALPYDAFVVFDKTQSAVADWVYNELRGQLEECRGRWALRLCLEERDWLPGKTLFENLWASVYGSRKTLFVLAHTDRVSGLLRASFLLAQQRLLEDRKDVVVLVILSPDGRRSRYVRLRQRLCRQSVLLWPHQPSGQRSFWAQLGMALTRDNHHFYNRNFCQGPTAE
ASSAY PROCEDURE: TLR9 inhibition reporter assay (HEK-Blue cells, secreted embryonic alkaline phosphatase reporter)
Assay type: cell-based
TEST CONTEXT: HEK-Blue human TLR9 reporter cells
Criterion: IC50 strictly less than 100 nM. Met: met. Not met: not met.

Solved cases (3 shown):
CS(=O)(=O)c1ccc(-c2nc3c(F)cc(C4CCN(C5CC6CCC(C5)N6C5CCC5)CC4)cc3n2C2CC2)cc1 (single isomer, unassigned) [Example 327] ... not met
CC(C)CN1CCCC(N2CCC(c3cc(F)c4nc(-c5ccc(S(C)(=O)=O)cc5)n(C)c4c3)CC2)CC1 (stereo not shown) [Example 297] ... met
Cn1c(-c2ccc(S(C)(=O)=O)cc2)nc2ccc(C3CCN(C4CCCN(C5CCC5)CC4)CC3)c(F)c21 (stereo not shown) [Example 312] ... met

Lab log: compare recorded IC50 with 100 nM; is it strictly lower for COc1cc(-c2nc3c(C)cc(C4CCN(C5CC6CCC(C5)N6C5CCC5)CC4)cc3n2C)cn2ncnc12 (single isomer, unassigned) [Example 356] ? met

Consider the molecule CC(C)CN1CCCC(N2CCC(c3cc(F)c4nc(-c5ccc(S(C)(=O)=O)cc5)n(C)c4c3)CC2)CC1 (stereo not shown) [Example 296] . Is its IC50 strictly less than 100 nM? met

# strict comparison: is reported IC50 < 100 nM? input = CC(C)N1CCCC(N2CCC(c3cc(F)c4nc(-c5ccc(S(C)(=O)=O)cc5)n(C)c4c3)CC2)CC1 (single isomer, unassigned) [Example 295] met

hey, is IC50 for Cc1cc(C2CCN(C3CCN(C4CCC4)CC3)CC2)cc2c1nc(-c1ccc(S(C)(=O)=O)c(F)c1)n2C lower than 100 nM or not? met

Is 100 nM strictly greater than the molecule's reported IC50? molecule: CC(C)CN1C2CCC1CC(N1CCC(c3cc(F)c4nc(-c5ccc(S(C)(=O)=O)cc5)n(C)c4c3)CC1)C2 (stereo not shown) [Example 284] not met

Consider COCCN1CCCC(N2CCC(c3cc(F)c4nc(-c5ccc(S(C)(=O)=O)cc5)n(C)c4c3)CC2)CC1 (single isomer, unassigned) [Example 302] . Does its IC50 lie strictly below 100 nM? met

Quick check: does CS(=O)(=O)c1ccc(-c2nc3c(F)cc(C4CCN(C5CC6CCC(C5)N6CC5CC5)CC4)cc3n2C2CC2)cc1 (single isomer, unassigned) [Example 325] have IC50 under 100 nM? met

Does the reported IC50 of COCCN1C2CCC1CC(N1CCC(c3cc(F)c4nc(-c5ccc(S(C)(=O)=O)cc5)n(C)c4c3)CC1)C2 (single isomer, unassigned) [Example 290] stay below 100 nM? not met

Field: below-cutoff. Rule: recorded IC50 strictly less than 100 nM. Subject: Cc1cc(C2CCN(C3CCCN(C4COC4)CC3)CC2)cc2c1nc(-c1ccc(S(C)(=O)=O)cc1)n2C (stereo not shown) [Example 305] met

IC50 strictly < 100 nM for this molecule? Cc1cc(C2CCN(C3CCN(C4CC4)CC3)CC2)cc2c1nc(-c1ccc(S(C)(=O)=O)c(F)c1)n2C not met

Does this molecule meet the criterion IC50 < 100 nM? CC(C)N1CCCC(N2CCC(c3cc(F)c4nc(-c5ccc(S(C)(=O)=O)cc5)n(C)c4c3)CC2)CC1 (single isomer, unassigned) [Example 294] met

Threshold test, IC50 < 100 nM: Cn1c(-c2ccc(S(C)(=O)=O)cc2)nc2ccc(C3CCN(C4CCCN(C5CCC5)CC4)CC3)c(F)c21 (stereo not shown) [Example 313] met

Report whether reported IC50 is lower than 100 nM (strictly) for Cn1c(-c2ccc(S(C)(=O)=O)cc2)nc2c(F)cc(C3CCN(C4CC5CCC(C4)N5CC4CC4)CC3)cc21 (single isomer, unassigned) [Example 282] not met
